Numbers sourced from the Immune Epitope Database (IEDB).

molecular target: HLA-B*15:17; assay: IEDB peptide-MHC binding, purified MHC/direct/fluorescence; filed as Kd, often an IC50 or EC50 that approximates it; bounds were set here for any values at or beyond the usual limits of such assays; conditions: source organism: Influenza A virus (A/chicken/Thailand/LV1NF/2004(H5N1))
pKd: −log10 of the molar value.
Measured Metric: pKd

> print(dat)
   polymer.sequence  measured.metric  result
1         EMIWDPNGW              pKd  ≤ 4.70

* * *

molecular target: HLA-B*27:03; assay: IEDB peptide-MHC binding, purified MHC/direct/fluorescence; filed as Kd, often an IC50 or EC50 that approximates it; bounds were set here for any values at or beyond the usual limits of such assays; details: source organism: Vibrio cholerae O395
pKd: −log10 of the molar value.
Measured Metric: pKd

> print(dat)
   polymer.sequence  measured.metric  result
1         VVSEIDLQW              pKd  ≤ 4.70
